Every entry's value here was drawn from patent US20140243403A1.

# System: SW1116 cells
# EXPERIMENTAL PROTOCOL: Cellular proliferation and viability, CRC cell line panel
# Assay type: cell-based, human
# CONDITION: KRAS G12A (KRAS-dependent), BRAF WT, APC del, CTNNB1 WT, 3 days post-treatment
# Procedure: (A) IC50 values (μM) for effects on cellular proliferation and viability with the TAK1 kinase inhibitor 5z-7-oxozeaenol in a panel of colon cancer cell lines that have been genotyped as KRAS mutant (KRAS-independent—circles or KRAS-dependent—squares), BRAF mutant (triangles) or wild-type for both KRAS and BRAF (OTHER—diamonds). Effects on growth were measured 3 days post-treatment. […]
ENDPOINT LABEL: pIC50
FYI, pIC50 means -log10 of a concentration in mol per litre.

## Input What does the record list as pIC50 for COc1cc(O)c2c(c1)/C=C/C[C@H](O)[C@H](O)C(=O)/C=C\C[C@H](C)OC2=O ?
## Output 6.91
